REPORTED PROPERTY: melting point

Record excerpt, results attached:
1. OC1CSC(Sc2ccccc2)C(O)C1O (centres undefined) = 150 to 151 °C
2. O=C(O)Cc1ccc(Oc2cccc(C(F)(F)F)c2)cc1 = 61 to 63 °C
3. CCCCCCCCCCCC1Cc2c(cccc2C(=O)O)N1 (racemic) = 105 to 108 °C
4. CCCCCCCCCCCCN(c1nc(Cl)nc(Cl)n1)c1nc(Cl)nc(Cl)n1 = 50 to 53 °C
5. CN1CCN(c2cccc3c2C[C@H](NC(=O)c2ccc(OC(F)(F)F)cc2)CO3)CC1 = 192 to 193 °C

Request: Quick one: melting point of Cc1onc(-c2ccccc2)c1-c1[nH]c2ccccc2c1CCCN(C)C ?
Result: 156 to 157 °C

Request: I would be grateful if you could share the reported melting point for O=C(C[C@@H](CCCC1CCCCC1)c1nc(CNC2CCC2)no1)NO .
Result: 82 to 83.9 °C

Request: Query: melting point; subject: Cc1oc(-c2ccccc2)nc1CCOc1ccc(C[C@@H](C(=O)O)n2ccc(-c3ccccc3)c2)cc1
Result: 146 to 147 °C

Request: What value of measured melting point is listed for CCN(CC)C(C)CNc1ccc(NCC(C)N(CC)CC)c2c1C(=O)c1c(O)ccc(O)c1C2=O (centres undefined) ?
Result: 126 to 128 °C

###

We begin with a simple list: items and their reported melting point.

Recorded results for 4 molecules are shown here.
1. COC(=O)C1CCC2C3CCC4CC(O)C=CC4(C)C3C(=O)CC12C (centres undefined) = 172 to 175 °C
2. NC(CC(=O)c1ccc(N2CCN(c3ccncc3)CC2)cc1)C(=O)O (centres undefined) = 263 to 264 °C
3. O=S1(=O)NCN(C2CCCCC2)c2cc(Cl)ccc21 = 178 to 180 °C
4. c1ccc(COc2ccc3[nH]cc(Cc4cccnc4)c3c2)cc1 = 148 °C

Request: Any idea what its melting point is? The molecule is COc1c(NC(=O)c2ccc(C)c(-n3cc(C(=O)NCc4cccnc4)cn3)c2)cc(C(C)(C)C)cc1NS(C)(=O)=O
Result: 127 to 133 °C

Request: Record request: melting point value, item O=C(c1ccc(I)cc1)C1(c2ccccc2F)CO1 (centres undefined)
Result: 75 to 76 °C

Request: I have this molecule here, Cc1cc(Cl)nn2c(-c3ccnc4[nH]ccc34)c(-c3ccc(F)cc3)nc12 , and I need its recorded melting point.
Result: 226 to 228 °C

Request: # get_value(readout='melting point', item= Cc1ncc(C#N)c(Nc2ccc3[nH]ccc3c2C)c1-c1cc2ccccc2o1 )
Result: 154 to 155 °C

Request: So what's the measured melting point for this one? C=C(C)COc1ccc(OC)cc1-c1nc2ccccc2[nH]1
Result: 144 to 148 °C

###

REPORTED PROPERTY: melting point

Request: Query: melting point; subject: O=C(Nc1ccc(C(=O)N2CCCC(=NO)c3ccccc32)cc1)c1cc(Cl)cc(Cl)c1
Result: 272 to 273 °C

Request: Entry Cc1c(-c2ncc([N+](=O)[O-])n2C)cnn1-c1ccccc1 : reported melting point = ?
Result: 194 °C

Request: What does the data say about its melting point? Entry: O=C(/C=C/c1ccc(CN2CCCC2)cc1)Nc1ccc(Br)cc1
Result: 184 to 186 °C

Request: Quick check: melting point of C[C@@H](C(=O)O)N(C)C(=O)CCSSc1ccc([N+](=O)[O-])cc1 ?
Result: 74 to 77 °C

Request: Could you tell me which melting point is on file for c1ccc(C(c2ccc3[nH]c(-c4ccccn4)nc3c2)n2ccnc2)cc1 (stereo not drawn) ?
Result: 123 °C

Request: Given Cc1nn(-c2cccc(C(F)(F)F)c2)cc1C(=O)O , state its recorded melting point.
Result: 166 to 168 °C

Request: Could you tell me which melting point is on file for CC(=O)Nc1c(C(=O)c2ccccc2C)[nH]c2cc(Cl)ccc12 ?
Result: 140 to 142 °C

Request: Please look up its melting point: c1cc(CCC(Cn2ccnc2)Sc2ccc(N3CCCC3)cc2)ccn1 (stereo not drawn)
Result: 148 to 149 °C

Request: Tell me the measured melting point of CN1CCN(C(=O)C(c2ccc(Cl)cc2)c2c(Cl)cc(-n3ncc(=O)[nH]c3=O)cc2Cl)CC1 (stereo not drawn) , please.
Result: 262 °C

Request: Please give the measured melting point for this compound: Cc1c(-c2ccc(S)nn2)ssc1=S
Result: 245 °C

Request: What melting point value was documented for this compound, CCCCCCCCCCCCCCCCCCN(C)C(=O)c1ccc(Cl)c([N+](=O)[O-])c1 ?
Result: 55 to 56 °C

Request: Request the reported melting point associated with Cc1ccc(C2=C(c3ccc(S(C)(=O)=O)cc3)CN(C3CC3)C2=O)cc1
Result: 214 to 216 °C

Request: Which melting point is reported for this compound? CN1C(=O)N(CCCC(NS(=O)(=O)c2ccc(-c3ccc(Cl)cc3)cc2)C(=O)O)C(=O)C1(C)C (stereo not drawn)
Result: 68 to 71 °C

Request: Value lookup for melting point; key = CCN1C(=O)C(C)(C)CCc2c1ccc(Nc1ncc(Cl)c(Nc3ccccc3C(=O)NC)n1)c2OC
Result: 226 to 228 °C

Request: What value of melting point has been recorded for this entry: COc1ccc(C2C3=C(COC3=O)Nc3ccc4nc(S)[nH]c4c32)cc1O (stereo not drawn)
Result: 334 to 337 °C

Request: Suppose we examine the compound COC(=O)c1cscc1NC(=O)COc1ccc(Br)cn1 ; what melting point value has been reported?
Result: 138 to 140 °C

Request: Entry under review: O=C1Nc2ccc(Cl)nc2Oc2ccccc21 . Reported melting point?
Result: 311 to 313 °C

Request: Fill in: melting point of Cc1c(SCc2ccc(C(C)(C)C)cc2)cnn(C(C)(C)C)c1=O is ___
Result: 91 to 92 °C

###

REPORTED PROPERTY: melting point

1. Cc1oc(-c2ccccc2)nc1CCOc1ccc(COc2cc3ccccc3cc2C(=O)O)cc1 = 135 to 137 °C
2. CN1C(=O)C2CCCCC2N=C1c1ccccc1 (stereo not given) = 79 to 82 °C
3. COc1ccc(C(=O)N2CCc3cc(OCc4ccccc4)c(OC)cc3C2=O)cc1OC = 200 to 201 °C
4. O=NN(CC(=O)O)C([PH](=O)Oc1ccccc1)[PH](=O)Oc1ccccc1 (stereo not given) = 40 to 44 °C

// below: melting point requested for another compound
Request: Entry CCCCN1CC(=O)NC1=O : reported melting point = ?
Result: 90 to 92 °C

###

Measured melting point of individual entries

Before answering, review these 8 worked examples.
1. CSc1ccc(-c2nn(CC=Cc3ccc(Cl)cc3)c(=O)cc2-c2ccc(F)cc2)cc1 = 119 °C
2. CCOc1nsc(N)c1C#N = 216 to 217 °C
3. O=c1occ(CSc2ccc(F)cc2)o1 = 57 to 59 °C
4. CC1(O)CC(=O)OC(CCc2ccccc2OCc2ccccc2)C1Br (centres undefined) = 122 to 125 °C
5. CC(C)CC(NC(=O)C(Cc1c[nH]cn1)NC(=O)C(CC(=O)N1CCCCC1)Cc1cccc2ccccc12)C(O)C(=O)OC(C)C (mixture of isomers) = 91 to 97 °C
6. COc1ccc(-c2nc(SCS(C)=O)[nH]c2-c2ccc(OC)cc2)cc1 (centres undefined) = 84.5 to 86.5 °C
7. COc1ccc(C=NO)c(OC)c1C = 110 to 111 °C
8. OC(CCc1ccc(OCc2ccccc2)c(OCc2ccccc2)c1)C1CCCCC1 (centres undefined) = 107 to 108 °C

Request: # melting point lookup, item CCNCC1(C)CN(c2c(F)cc3c(=O)c(C(=O)O)cn4c3c2OC[C@H]4C)C1
Result: 242 to 245 °C

Request: Given the entry COC(=O)COc1ccc2c(c1)Oc1cc(O)ccc1C21OC(=O)c2ccccc21 (centres undefined) , report its measured melting point.
Result: 236 °C

Request: Return reported melting point; argument: COc1ccc2cc(-c3cnc(Cc4ccc5ccccc5c4)o3)ccc2c1
Result: 159 to 162 °C

Request: Can you share its melting point? I mean this molecule: CCc1cc(Cl)c(S(C)(=O)=O)cc1C(=O)O
Result: 180 to 183 °C

Request: Endpoint output: melting point of Cn1ncc(NCCN(CCOc2cccc3c2OCCO3)Cc2ccccc2)c(Cl)c1=O . Value?
Result: 78 to 80 °C

Request: Please give the measured melting point for this molecule: CSc1noc(-c2ccc(OCCCc3ccccc3)cc2)c1C#N
Result: 99 to 100 °C

Request: Item O=C(O)CCCC(=O)CNC(=O)c1csc(NC(=O)NCc2ccccc2)n1 has what recorded melting point?
Result: 169 °C

Request: Name the recorded melting point for Nc1nc(-c2ccncc2O)nc2c1c(C(F)(F)F)nn2C1CCCC1 .
Result: 187 to 190 °C

Request: If you can, please state the reported melting point value of NC(=O)C1(/C=C2\CN3C(=O)CC3O2)C=CC=CC1 (centres undefined) .
Result: 197 to 199 °C

Request: Bench note: what melting point did CC(C)C(=O)Nc1nc(Cl)c([N+](=O)[O-])c(Cl)n1 show?
Result: 166 to 169 °C

Request: Field request: melting point | item: O=C(C1CCCCC1)C1CCN(Cc2cc(O)c(O)cc2[N+](=O)[O-])CC1
Result: 240 °C
